Tested on: TK-10 renal
Experiment: NCI tumour cell line growth inhibition, 48 h
Would you mind telling me the reported TGI of each entry?

Solved cases below.
C=C1CC2CC(=O)C(O)C(C1)C2 (stereo not drawn) : > 100 µM
Cc1ccc(-c2nc(N)c(C#N)c3c2CCOc2c-3ccc3ccccc23)cc1 : 13.6 µM

We now examine a further molecule.
Form field TGI, entry `N#Cc1c(N)nc(NCc2ccccc2)c(C#N)c1-c1ccccc1Cl` : 66 µM

---

Would you mind telling me the reported TGI of each entry?
System: A498 renal
Test: NCI tumour cell line growth inhibition, 48 h

Solved cases below.
O=Nc1sc(=N\O)/c(=N/O)sc1NO : > 100 µM
Cn1c(=O)n2c(-c3ccccc3)c(-c3ccccc3)n2c1=O : > 100 µM

Form field TGI, entry `COc1ccc(C(=O)CC(=O)C(=O)Nc2ccc(C)c(C)c2)cc1` : > 100 µM
